Biological target: T1, human NMUR1 (human, UniProt Q9HB89 1-426)
T1 construct: whole, on cells; Stably expressed in cells (FLIPR); also called hNMUR1; human R1
T1 sequence (looked up): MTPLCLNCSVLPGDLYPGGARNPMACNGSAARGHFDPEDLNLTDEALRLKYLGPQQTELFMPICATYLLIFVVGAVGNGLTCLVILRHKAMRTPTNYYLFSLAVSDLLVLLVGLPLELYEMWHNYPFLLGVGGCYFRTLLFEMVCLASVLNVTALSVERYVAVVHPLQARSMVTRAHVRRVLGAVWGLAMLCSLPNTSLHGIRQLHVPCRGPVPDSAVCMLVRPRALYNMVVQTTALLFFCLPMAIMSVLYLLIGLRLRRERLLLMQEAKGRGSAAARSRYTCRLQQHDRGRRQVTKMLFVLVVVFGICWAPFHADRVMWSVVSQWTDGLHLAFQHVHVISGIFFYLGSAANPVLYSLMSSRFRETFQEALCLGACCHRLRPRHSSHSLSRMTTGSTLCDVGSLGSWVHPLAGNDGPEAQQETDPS
Assay: 125I-hNMU-25 displacement, HEK cell membranes
Non-standard residues stand in square brackets, D forms with d. No end group written: not given here.
endpoint-name: % activity (binding) (%)

| binder | endpoint-name | number |
| --- | --- | --- |
| YF[dA]WRPRN-NH2 (N-terminus assumed; SMILES C[C@@H](NC(=O)[C@H](Cc1ccccc1)NC(=O)[C@@H](N)Cc1ccc(O)cc1)C(=O)N[C@@H](Cc1c[nH]c2ccccc12)C(=O)N[C@@H](CCCNC(=N)N)C(=O)N1CCC[C@H]1C(=O)N[C@@H](CCCNC(=N)N)C(=O)N[C@@H](CC(N)=O)C(N)=O) [neuromedin U receptor agonist D] | % activity (binding) | 100 |
